# System: OVCAR-5
# experiment-description: Antiproliferative activity against human OVCAR-5 cells assessed as cell growth inhibition at 10 uM incubated for 48 hrs by SRB assay relative to control
# Type: functional
# measurement-parameters: read-out: GI
Measured inhibition of growth at 10 µM, listed per entry.

Exam item: May I ask what inhibition of growth at 10 µM has been recorded for Cc1nc2c(cnn2-c2ccccc2)c(=O)n1-c1ccc(NC(=O)c2ccccc2)cc1 ?
Marked response: < 15%

Exam item: May I ask what inhibition of growth at 10 µM has been recorded for Cc1nc2c(cnn2-c2ccccc2)c(=O)n1-c1ccc(/N=C2\C(=O)Nc3ccccc32)cc1 ?
Marked response: < 15%

Now consider a different molecule.
Exam item: May I ask what inhibition of growth at 10 µM has been recorded for Cc1nc2c(cnn2-c2ccccc2)c(=O)n1-c1ccc(NC(=O)c2ccc(F)cc2)cc1 ?
Marked response: < 15%
